Sourced from patent US4368199A

change in vivo at 0.625 mg/kg values, listed per item
system: dogs; test: Haemodynamic tests on dogs anaesthetized with sodic pentobarbital (arterial pressure, cardiac frequency, coronary flow, cardiac contractile force); type: in vivo; details: Canis lupus familiaris, iv; dog, 0.625 mg/kg/i.v.; read-out: Variation of the cardiac frequency
Report only the number, with the unit % understood.

Some entries whose results are on file:
COc1ccc(CN2CCN(C(=O)C=Cc3cc(OC)c(OC)c(OC)c3)CC2)cc1OC [Compound 2]	6
COc1cc(C=CC(=O)N2CCN(CC(=O)c3ccc(OC)c4c3OCCO4)CC2)cc(OC)c1OC [Compound 10]	2

Now examine the next entry.
Short answer for COc1cc(C=CC(=O)N2CCN(CCc3cccc(O)c3)CC2)cc(OC)c1OC [Compound 3] : change in vivo at 0.625 mg/kg was 0

###

test system: dogs; assay: Haemodynamic tests on dogs anaesthetized with sodic pentobarbital (arterial pressure, cardiac frequency, coronary flow, cardiac contractile force); assay type: in vivo; details: Canis lupus familiaris, iv; dog, 0.625 mg/kg/i.v.; read-out: Increase of the cardiac contractile force
Reported Metric: change in vivo at 0.625 mg/kg (%)
Report only the number, with the unit % understood.

Some entries whose results are on file:
COc1cc(C=CC(=O)N2CCN(CC(=O)c3ccc(OC)c4c3OCCO4)CC2)cc(OC)c1OC	9
COc1cc(C=CC(=O)N2CCN(CCc3cccc(O)c3)CC2)cc(OC)c1OC	47
COc1ccc(CN2CCN(C(=O)C=Cc3cc(OC)c(OC)c(OC)c3)CC2)cc1OC	71

Now examine the next entry.
Short answer for COc1cc(C=CC(=O)N2CCN(CC(=O)c3ccc(OC)c(OC)c3OC)CC2)cc(OC)c1OC : change in vivo at 0.625 mg/kg was 69

###

experiment: Acute toxicity in the mouse (MILLER and TAINTER method); details: in vivo, po, at 1000 mg/kg, read-out: LD 50 column: percentage in parentheses (p.o.)
Reported Metric: mortality (%)
Report only the number, with the unit % understood.

COc1ccc(OC)c(C(O)CN2CCN(C(=O)C=Cc3cc(OC)c(OC)c(OC)c3)CC2)c1 (centres unmarked) [Compound 90]	80

Now examine the next entry.
Short answer for COc1cc(C=CC(=O)N2CCN(CC(=O)c3ccc(OC)c(OC)c3OC)CC2)cc(OC)c1OC [Compound 7] : mortality was 0

###

experiment: Acute toxicity in the mouse (MILLER and TAINTER method); details: in vivo, iv, read-out: LD 50 (mouse)
Reported Metric: LD50 (mg/kg)
Report only the number, with the unit mg/kg understood.

Some entries whose results are on file:
COc1cc(C=CC(=O)N2CCN(CC(=O)c3ccc(OC)c4c3OCCO4)CC2)cc(OC)c1OC [Compound 10]	180
COc1ccc(OC)c(C(=O)CN2CCN(C(=O)C=Cc3cc(OC)c(OC)c(OC)c3)CC2)c1 [Compound 70]	168
COc1cc(C=CC(=O)N2CCN(C3CCc4cc(O)c(O)cc4C3)CC2)cc(OC)c1OC (stereo not drawn) [Compound 108, hydrate]	200

Short answer for COc1ccc(CN2CCN(C(=O)C=Cc3cc(OC)c(OC)c(OC)c3)CC2)cc1OC [Compound 2] : LD50 was 105

Short answer for COc1cc(C=CC(=O)N2CCN(CC(=O)c3ccc4ccccc4c3)CC2)cc(OC)c1OC [Compound 62] : LD50 was 45

###

change in vivo at 2.5 mg/kg values, listed per item
Tested on: dogs
Experiment: Haemodynamic tests on dogs anaesthetized with sodic pentobarbital (arterial pressure, cardiac frequency, coronary flow, cardiac contractile force)
Assay type: in vivo
Conditions: Canis lupus familiaris, iv; dog, 2.5 mg/kg/i.v.; read-out: Increase of the cardiac contractile force
Method: Tests were carried out on dogs anaesthetized with sodic pentobarbital (30 mg/kg/i.v.) and the compounds of formula (I) were administered intravenously. The activity on the cardiac contractile force was measured with a BRODIE and WALTON stress gauge fixed to the left ventricle. The arterial pressure was measured at the femoral artery with a SANBORN pressure sensor. The cardiac frequency was automatically counted by means of a cardiotachymeter from the pulse pressure wave. […]

COc1cc(C=CC(=O)N2CCN(Cc3ccc(NC(C)=O)cc3)CC2)cc(OC)c1OC [Compound 41]	35%

Short answer for CNC(=O)Nc1ccc(CCN2CCN(C(=O)C=Cc3cc(OC)c(OC)c(OC)c3)CC2)cc1 [Compound 54] : change in vivo at 2.5 mg/kg was 48%

Short answer for COc1cc(C=CC(=O)N2CCN(CCc3cccc(O)c3)CC2)cc(OC)c1OC [Compound 3] : change in vivo at 2.5 mg/kg was 62%

Short answer for COc1ccc(OC)c(C(O)CN2CCN(C(=O)C=Cc3cc(OC)c(OC)c(OC)c3)CC2)c1 (stereo not drawn) [Compound 90] : change in vivo at 2.5 mg/kg was 42%

Short answer for CNC(=O)Nc1ccc(C(O)CN2CCN(C(=O)C=Cc3cc(OC)c(OC)c(OC)c3)CC2)cc1 (stereo not drawn) [Compound 95] : change in vivo at 2.5 mg/kg was 21%

Short answer for COc1ccc(OC)c(C(=O)CN2CCN(C(=O)C=Cc3cc(OC)c(OC)c(OC)c3)CC2)c1 [Compound 70] : change in vivo at 2.5 mg/kg was 50%

###

tested on: dogs; assay: Haemodynamic tests on dogs anaesthetized with sodic pentobarbital (arterial pressure, cardiac frequency, coronary flow, cardiac contractile force); assay type: in vivo; conditions: Canis lupus familiaris, iv; dog, 2.5 mg/kg/i.v.; read-out: Increase of the cardiac contractile force
Structures can show the parent of a compound that is named as a salt.
change in vivo at 2.5 mg/kg values, listed per item

COc1ccc(C(O)CN2CCN(C(=O)C=Cc3cc(OC)c(OC)c(OC)c3)CC2)c(OC)c1 (stereo not shown)	51%

Short answer for COc1ccc(CC(O)CN2CCN(C(=O)C=Cc3cc(OC)c(OC)c(OC)c3)CC2)cc1OC (stereo not shown) [Compound 102, hydrochloride hydrate] : change in vivo at 2.5 mg/kg was 13%

Short answer for COc1cc(C=CC(=O)N2CCN(CCc3c[nH]c4ccccc34)CC2)cc(OC)c1OC : change in vivo at 2.5 mg/kg was 17%

Short answer for COc1cc(C=CC(=O)N2CCN(CC(=O)c3ccc(OC)c(OC)c3OC)CC2)cc(OC)c1OC : change in vivo at 2.5 mg/kg was 51%

Short answer for COc1cc(C=CC(=O)N2CCN(CC(=O)c3ccc(OC)c4c3OCCO4)CC2)cc(OC)c1OC : change in vivo at 2.5 mg/kg was 53%

Short answer for COc1cc(C=CC(=O)N2CCN(C3CCc4cc(O)c(O)cc4C3)CC2)cc(OC)c1OC (stereo not shown) [Compound 108, hydrate] : change in vivo at 2.5 mg/kg was 44%

Short answer for COc1cc(C=CC(=O)N2CCN(CC(=O)c3ccc4ccccc4c3)CC2)cc(OC)c1OC : change in vivo at 2.5 mg/kg was 43%
